# credit: patent US10952999B2

Target: CDK9/cyclin T1 (Homo sapiens)
Sequence (P50750 whole entry): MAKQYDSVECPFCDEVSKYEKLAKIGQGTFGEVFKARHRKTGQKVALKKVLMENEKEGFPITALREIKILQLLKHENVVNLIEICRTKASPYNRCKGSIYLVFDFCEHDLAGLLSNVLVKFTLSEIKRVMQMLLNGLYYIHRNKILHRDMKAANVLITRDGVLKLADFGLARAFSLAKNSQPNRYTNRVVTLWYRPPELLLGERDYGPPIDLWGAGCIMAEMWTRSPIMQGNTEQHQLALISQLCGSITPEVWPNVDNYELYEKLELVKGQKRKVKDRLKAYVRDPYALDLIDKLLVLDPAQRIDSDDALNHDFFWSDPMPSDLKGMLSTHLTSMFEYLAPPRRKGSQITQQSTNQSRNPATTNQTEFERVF
Sequence (O60563 whole entry partner): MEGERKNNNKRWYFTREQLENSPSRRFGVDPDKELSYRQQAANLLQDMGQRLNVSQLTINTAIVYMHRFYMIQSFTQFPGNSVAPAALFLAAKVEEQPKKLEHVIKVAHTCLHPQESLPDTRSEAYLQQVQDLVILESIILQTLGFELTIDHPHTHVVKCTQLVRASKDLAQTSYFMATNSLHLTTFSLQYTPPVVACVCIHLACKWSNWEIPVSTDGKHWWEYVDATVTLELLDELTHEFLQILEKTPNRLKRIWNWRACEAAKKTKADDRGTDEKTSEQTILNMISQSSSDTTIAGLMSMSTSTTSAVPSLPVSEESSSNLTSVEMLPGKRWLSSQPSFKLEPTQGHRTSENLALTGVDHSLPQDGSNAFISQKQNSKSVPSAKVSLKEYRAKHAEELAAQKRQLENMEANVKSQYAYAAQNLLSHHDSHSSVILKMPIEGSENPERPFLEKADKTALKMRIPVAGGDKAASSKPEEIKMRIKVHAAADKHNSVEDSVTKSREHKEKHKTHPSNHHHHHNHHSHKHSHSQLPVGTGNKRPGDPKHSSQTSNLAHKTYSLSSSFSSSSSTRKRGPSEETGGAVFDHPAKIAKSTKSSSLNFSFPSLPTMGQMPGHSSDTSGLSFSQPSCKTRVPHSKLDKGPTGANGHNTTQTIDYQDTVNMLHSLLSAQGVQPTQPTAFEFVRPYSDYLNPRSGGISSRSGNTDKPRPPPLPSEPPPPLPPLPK
Experiment notes: Enzyme assay for inhibition of CDK protein in vitro (Z-LYTE)
Recorded metric: IC50 (nM)

COC[C@@H](C)N[C@H]1CC[C@H](Nc2cc(-c3csc(NCC4(C#N)CCOCC4)n3)c(Cl)cn2)CC1 [Compound 1]	0.928
COCCN[C@H]1CC[C@H](Nc2cc(-c3csc(NCC4(C#N)CCOCC4)n3)c(Cl)cn2)CC1 [Compound 14]	1.27

---

Target: CDK2/cyclin A (Homo sapiens, UniProt P24941)
Experiment notes: Enzyme assay for inhibition of CDK protein in vitro (Z-LYTE)
Recorded metric: pIC50
Reminder that pIC50 is minus the log10 of a molar concentration.

Short answer for COC[C@@H](C)N[C@H]1CC[C@H](Nc2cc(-c3csc(NCC4(C#N)CCOCC4)n3)c(Cl)cn2)CC1 : pIC50 was 5.16

---

Tested on: acute myeloid leukemia cell line HL-60
Experiment notes: Cancer cell growth, Cell Titer-Glo cell viability assay, 72 hours
Assay type: cell-based
Experimental setup: Homo sapiens; HL-60, 72 hours
Recorded metric: GI50 (nM)

Below are worked cases with known answers.
N[C@H]1CC[C@H](Nc2cc(-c3csc(NCC4CCOCC4)n3)c(Cl)cn2)CC1	550
COCCN[C@H]1CC[C@H](Nc2cc(-c3csc(NCc4ccccc4)n3)c(Cl)cn2)CC1	73
COC[C@H](C)N[C@H]1CC[C@H](Nc2cc(-c3csc(NCC4CCOCC4)n3)c(Cl)cn2)CC1	390
COCCN[C@H]1CC[C@H](Nc2cc(-c3csc(NCC4(C#N)CCOCC4)n3)c(Cl)cn2)CC1	56
COCCN[C@H]1CC[C@H](Nc2cc(-c3csc(NCC4CCCCC4)n3)c(Cl)cn2)CC1	410

(a) COC[C@@H](C)N[C@H]1CC[C@H](Nc2cc(-c3csc(NCC4CCOCC4)n3)c(Cl)cn2)CC1
(b) O=C(Nc1cc(-c2csc(NCC3CCOCC3)n2)c(Cl)cn1)c1ccc(F)cc1
(c) COCCN[C@H]1CC[C@H](Nc2cc(-c3csc(OCC4CCOCC4)n3)c(Cl)cn2)CC1
(d) CCc1cnn2c(NCc3ccc[n+]([O-])c3)cc(N3CCCC[C@H]3CCO)nc12 [Dinaciclib, reference compound]
Write the entries in order, lowest recorded GI50 first. The labels, placed in the requested order, form the answer.
d, a, b, c
(d: 8 nM, a: 65 nM, b: 310 nM, c: 450 nM)

---

Target: CDK8/cyclin C (Homo sapiens, UniProt P49336)
Sequence (P49336 whole entry): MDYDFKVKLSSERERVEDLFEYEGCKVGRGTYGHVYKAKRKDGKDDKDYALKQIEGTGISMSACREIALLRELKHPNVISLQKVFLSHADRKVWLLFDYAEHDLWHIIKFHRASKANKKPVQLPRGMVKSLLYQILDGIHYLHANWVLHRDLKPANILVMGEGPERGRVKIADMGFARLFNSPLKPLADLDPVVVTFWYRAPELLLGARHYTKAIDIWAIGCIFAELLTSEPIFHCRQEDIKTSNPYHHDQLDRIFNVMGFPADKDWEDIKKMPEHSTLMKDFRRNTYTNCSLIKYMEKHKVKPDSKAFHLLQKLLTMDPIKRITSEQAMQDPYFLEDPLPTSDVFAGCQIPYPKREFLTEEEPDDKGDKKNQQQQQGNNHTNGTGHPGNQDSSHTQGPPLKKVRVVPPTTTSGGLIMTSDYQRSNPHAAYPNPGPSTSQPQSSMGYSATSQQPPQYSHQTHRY
Sequence (P24863 whole entry partner): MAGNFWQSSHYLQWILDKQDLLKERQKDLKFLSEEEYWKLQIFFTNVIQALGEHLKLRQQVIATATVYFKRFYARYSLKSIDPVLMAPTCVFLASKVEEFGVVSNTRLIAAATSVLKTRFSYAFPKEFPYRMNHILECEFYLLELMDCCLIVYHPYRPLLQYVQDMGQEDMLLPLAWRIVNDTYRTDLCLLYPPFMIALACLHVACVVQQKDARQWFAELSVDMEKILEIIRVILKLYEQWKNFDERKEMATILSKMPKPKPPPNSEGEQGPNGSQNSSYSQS
Experiment notes: Enzyme assay for inhibition of CDK protein in vitro (Z-LYTE)
Recorded metric: IC50

COC[C@@H](C)N[C@H]1CC[C@H](Nc2cc(-c3csc(NCC4(C#N)CCOCC4)n3)c(Cl)cn2)CC1	> 10 µM

Continue with the next compound.
Measured on CDK8/cyclin C (Homo sapiens, UniProt P49336), COCCN[C@H]1CC[C@H](Nc2cc(-c3csc(NCC4(C#N)CCOCC4)n3)c(Cl)cn2)CC1 has a documented IC50 of > 10 µM

---

Tested on: acute myeloid leukemia cell line MV4-11
Experiment notes: Cancer cell growth, Cell Titer-Glo cell viability assay, 72 hours
Format: cell-based
Experimental setup: Homo sapiens; MV4-11, 72 hours
Recorded metric: GI50 (nM)

O=C(Nc1cc(-c2csc(NCC3CCOCC3)n2)c(Cl)cn1)c1ccc(F)cc1 [Compound 8]	550
COCCN[C@H]1CC[C@H](Nc2cc(-c3csc(NCC4CC4)n3)c(Cl)cn2)CC1 [Compound 13]	740
COCCN[C@H]1CC[C@H](Nc2cc(-c3csc(NCc4ccc(F)cc4)n3)c(Cl)cn2)CC1 [Compound 12]	880
COC[C@@H](C)N[C@H]1CC[C@H](Nc2cc(-c3csc(NCC4(C#N)CCOCC4)n3)c(Cl)cn2)CC1 [Compound 1]	14
CCc1cnn2c(NCc3ccc[n+]([O-])c3)cc(N3CCCC[C@H]3CCO)nc12 [Dinaciclib, reference compound]	7.6

(A) COCCN[C@H]1CC[C@H](Nc2cc(-c3csc(NCC4(C#N)CCOCC4)n3)c(Cl)cn2)CC1 [Compound 14]
(B) COCCN[C@H]1CC[C@H](Nc2cc(-c3csc(OCC4CCOCC4)n3)c(Cl)cn2)CC1 [Compound 16]
(C) COC[C@@H](C)N[C@H]1CC[C@H](Nc2cc(-c3csc(NCC4CCOCC4)n3)c(Cl)cn2)CC1 [Compound 6]
(D) COCCN[C@H]1CC[C@H](Nc2cc(-c3csc(NCC4CCOCC4)n3)ccn2)CC1 [Compound 18]
Rank entries according to their GI50, from the largest number down. The labels, placed in the requested order, form the answer.
D, B, C, A
(D: 910 nM, B: 630 nM, C: 140 nM, A: 41 nM)

---

Let's go through some recorded GI50 values for hamster ovary cell CHO together.
The answer is to be given in nM; state only the numeric part.

CCc1cnn2c(NCc3ccc[n+]([O-])c3)cc(N3CCCC[C@H]3CCO)nc12 [Dinaciclib, reference compound]	160

Short answer for COCCN[C@H]1CC[C@H](Nc2cc(-c3csc(NCC4CCCCC4)n3)c(Cl)cn2)CC1 : GI50 was 780

Short answer for COCCN[C@H]1CC[C@H](Nc2cc(-c3csc(NCc4ccccc4)n3)c(Cl)cn2)CC1 : GI50 was 370

---

Test system: human breast cancer cell MCF-7
Experiment notes: Cancer cell growth, Cell Titer-Glo cell viability assay, 72 hours
Assay type: cell-based
Experimental setup: MCF7, MCF-7, 72 hours
Recorded metric: IC50 (nM)

(A) COC[C@@H](C)N[C@H]1CC[C@H](Nc2cc(-c3csc(NCC4(C#N)CCOCC4)n3)c(Cl)cn2)CC1
(B) CC(=O)c1c(C)c2cnc(Nc3ccc(N4CCNCC4)cn3)nc2n(C2CCCC2)c1=O [Palbociclib, reference compound]
Hey, which is lower on measured IC50, A or B ? API: response body contains the label of the selected item.
A

---

Target: CDK1/cyclin B (Homo sapiens, UniProt P06493)
Sequence (P06493 whole entry): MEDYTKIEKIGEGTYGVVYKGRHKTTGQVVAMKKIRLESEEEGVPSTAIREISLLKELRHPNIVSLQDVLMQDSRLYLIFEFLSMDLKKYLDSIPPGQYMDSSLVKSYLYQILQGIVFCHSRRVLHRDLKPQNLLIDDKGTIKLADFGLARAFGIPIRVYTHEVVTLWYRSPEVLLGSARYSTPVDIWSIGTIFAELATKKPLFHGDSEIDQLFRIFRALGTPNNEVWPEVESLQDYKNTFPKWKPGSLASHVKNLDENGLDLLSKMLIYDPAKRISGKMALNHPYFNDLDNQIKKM
Sequence (P14635 whole entry partner): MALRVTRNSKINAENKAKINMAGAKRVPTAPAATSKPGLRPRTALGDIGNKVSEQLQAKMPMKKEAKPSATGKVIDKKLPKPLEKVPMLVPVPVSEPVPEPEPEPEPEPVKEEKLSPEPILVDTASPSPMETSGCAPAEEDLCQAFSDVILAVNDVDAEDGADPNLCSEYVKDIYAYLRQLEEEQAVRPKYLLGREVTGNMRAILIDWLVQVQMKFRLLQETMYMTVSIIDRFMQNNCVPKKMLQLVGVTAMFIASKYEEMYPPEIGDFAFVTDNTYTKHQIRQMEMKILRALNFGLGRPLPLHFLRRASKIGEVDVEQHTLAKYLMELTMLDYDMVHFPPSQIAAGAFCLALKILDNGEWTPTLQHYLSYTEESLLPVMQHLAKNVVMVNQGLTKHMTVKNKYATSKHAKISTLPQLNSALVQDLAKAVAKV
Experiment notes: Enzyme assay for inhibition of CDK protein in vitro (Z-LYTE)
Recorded metric: pIC50
Reminder that pIC50 is minus the log10 of a molar concentration.

Short answer for COC[C@@H](C)N[C@H]1CC[C@H](Nc2cc(-c3csc(NCC4(C#N)CCOCC4)n3)c(Cl)cn2)CC1 : pIC50 was 5.27

---

System: acute B cell leukemia cell line MEC-2
Experiment notes: Cancer cell growth, Cell Titer-Glo cell viability assay, 72 hours
Format: cell-based
Experimental setup: MEC2; MEC-2, 72 hours
Recorded metric: GI50 (nM)

O=C(Nc1cc(-c2csc(NCC3CCOCC3)n2)c(Cl)cn1)c1ccc(F)cc1	830

(A) CNc1nc(-c2cc(N[C@H]3CC[C@H](NCCOC)CC3)ncc2Cl)cs1
(B) COCCN[C@H]1CC[C@H](Nc2cc(-c3csc(NCC4CCCCC4)n3)c(Cl)cn2)CC1
Between A and B , which one shows the larger GI50 value? API: response body contains the label of the selected item.
A

---

Tested on: acute B cell leukemia cell line MEC-2
Experiment notes: Cancer cell growth, Cell Titer-Glo cell viability assay, 72 hours
Type: cell-based
Experimental setup: MEC2; MEC-2, 72 hours
Recorded metric: GI50 (µM)

Below are worked cases with known answers.
CCc1cnn2c(NCc3ccc[n+]([O-])c3)cc(N3CCCC[C@H]3CCO)nc12 [Dinaciclib, reference compound]	0.01
N[C@H]1CC[C@H](Nc2cc(-c3csc(NCC4CCOCC4)n3)c(Cl)cn2)CC1 [Compound 2]	0.14
COCCN[C@H]1CC[C@H](Nc2cc(-c3csc(NCc4ccc(F)cc4)n3)c(Cl)cn2)CC1 [Compound 12]	0.48
COCCN[C@H]1CC[C@H](Nc2cc(-c3csc(NCC4(C#N)CCOCC4)n3)c(Cl)cn2)CC1 [Compound 14]	0.023

(I) COC[C@@H](C)N[C@H]1CC[C@H](Nc2cc(-c3csc(NCC4(C#N)CCOCC4)n3)c(Cl)cn2)CC1 [Compound 1]
(II) COC[C@H](C)N[C@H]1CC[C@H](Nc2cc(-c3csc(NCC4CCOCC4)n3)c(Cl)cn2)CC1 [Compound 5]
(III) COC[C@@H](C)N[C@H]1CC[C@H](Nc2cc(-c3csc(NCC4CCOCC4)n3)c(Cl)cn2)CC1 [Compound 6]
Write the entries in order, lowest recorded GI50 first. The labels, placed in the requested order, form the answer.
I, III, II
(I: 0.025 µM, III: 0.13 µM, II: 0.77 µM)

---

Let's go through some recorded GI50 values for hamster ovary cell CHO together.
The answer is to be given in nM; state only the numeric part.

Below are worked cases with known answers.
N[C@H]1CC[C@H](Nc2cc(-c3csc(NCC4CCOCC4)n3)c(Cl)cn2)CC1 [Compound 2]	2800
COCCN[C@H]1CC[C@H](Nc2cc(-c3csc(NCC4(C#N)CCOCC4)n3)c(Cl)cn2)CC1 [Compound 14]	1100
COCCN[C@H]1CC[C@H](Nc2cc(-c3csc(NCc4ccc(F)cc4)n3)c(Cl)cn2)CC1 [Compound 12]	470
COCCN[C@H]1CC[C@H](Nc2cc(-c3csc(NCC4CCOCC4)n3)ccn2)CC1 [Compound 18]	4100
COC[C@H](C)N[C@H]1CC[C@H](Nc2cc(-c3csc(NCC4CCOCC4)n3)c(Cl)cn2)CC1 [Compound 5]	1200
COC[C@@H](C)N[C@H]1CC[C@H](Nc2cc(-c3csc(NCC4(C#N)CCOCC4)n3)c(Cl)cn2)CC1 [Compound 1]	1600

Continue with the next molecule.
Short answer for NC1CCC(Nc2cc(-c3cccc(NCc4cccc(F)c4)n3)c(Cl)cn2)CC1 (stereo not shown) [HY-16462, reference compound] : GI50 was 290
